Values from patent US20250197372A1

Tgt: recombinant alpha-glucosidase II (murine full-length glucosidase II, alpha and beta subunits, Glu 2) (Mus musculus)
Construct: made in house; host or cells: HEK-293T cells transduced with BacMam viruses (75% alpha, 25% beta); protein harvested from culture supernatant
Sequence (O08795 15-521): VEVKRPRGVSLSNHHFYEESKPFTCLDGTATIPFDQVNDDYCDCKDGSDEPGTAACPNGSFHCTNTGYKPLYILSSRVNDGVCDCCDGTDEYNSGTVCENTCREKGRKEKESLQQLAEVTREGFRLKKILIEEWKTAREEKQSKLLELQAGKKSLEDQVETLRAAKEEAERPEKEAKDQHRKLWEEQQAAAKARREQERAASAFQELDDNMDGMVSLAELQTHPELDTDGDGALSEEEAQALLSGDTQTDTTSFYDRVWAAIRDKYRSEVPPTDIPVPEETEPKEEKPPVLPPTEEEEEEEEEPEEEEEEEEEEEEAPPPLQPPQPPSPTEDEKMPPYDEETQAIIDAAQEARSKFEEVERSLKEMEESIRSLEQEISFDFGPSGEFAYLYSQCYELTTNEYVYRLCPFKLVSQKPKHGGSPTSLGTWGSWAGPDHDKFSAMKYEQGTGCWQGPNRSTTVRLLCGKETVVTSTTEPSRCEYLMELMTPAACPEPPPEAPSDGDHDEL
Sequence (Q8BHN3 33-944): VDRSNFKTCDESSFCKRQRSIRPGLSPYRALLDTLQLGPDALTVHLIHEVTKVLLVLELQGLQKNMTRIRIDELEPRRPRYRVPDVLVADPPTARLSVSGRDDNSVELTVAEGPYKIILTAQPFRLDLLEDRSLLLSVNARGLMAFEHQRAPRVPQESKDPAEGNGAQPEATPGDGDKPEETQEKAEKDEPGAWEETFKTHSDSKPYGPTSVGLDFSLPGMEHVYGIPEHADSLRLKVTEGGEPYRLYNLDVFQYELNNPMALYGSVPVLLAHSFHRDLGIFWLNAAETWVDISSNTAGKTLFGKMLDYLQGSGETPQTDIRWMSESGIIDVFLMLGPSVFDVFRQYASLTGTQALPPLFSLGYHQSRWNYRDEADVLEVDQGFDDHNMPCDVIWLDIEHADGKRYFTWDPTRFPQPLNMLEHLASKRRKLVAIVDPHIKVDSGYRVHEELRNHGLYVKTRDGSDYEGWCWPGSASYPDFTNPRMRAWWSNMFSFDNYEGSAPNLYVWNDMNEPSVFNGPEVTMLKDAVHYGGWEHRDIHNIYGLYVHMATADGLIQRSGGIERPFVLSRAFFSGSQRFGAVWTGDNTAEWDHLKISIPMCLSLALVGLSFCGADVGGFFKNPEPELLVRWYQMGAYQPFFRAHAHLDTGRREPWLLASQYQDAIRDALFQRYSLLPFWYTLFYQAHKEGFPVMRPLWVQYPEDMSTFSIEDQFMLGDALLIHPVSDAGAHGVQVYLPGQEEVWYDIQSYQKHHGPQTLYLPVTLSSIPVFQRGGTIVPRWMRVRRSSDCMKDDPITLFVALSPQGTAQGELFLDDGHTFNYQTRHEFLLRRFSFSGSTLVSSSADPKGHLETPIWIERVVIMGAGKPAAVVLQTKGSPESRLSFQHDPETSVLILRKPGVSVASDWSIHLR
Measurement notes: Alpha-glucosidase II assay (4-methylumbelliferyl-alpha-D-pyranoside substrate, fluorescence)
Format: biochemical
Particulars: Glucosidase 2; read-out: Glu2 IC50
This section presents compounds with their documented IC50 values.

N#Cc1cc(Cl)cc(NCCc2ccc(CCN3C[C@H](O)[C@@H](O)[C@H](O)[C@H]3CO)cc2)c1 :: 1 nM
NS(=O)(=O)c1cc(-c2ncccn2)ccc1NCCCCCCN1C[C@H](O)[C@@H](O)[C@H](O)[C@H]1CO :: 12 nM
O=[N+]([O-])c1cc(CCO)ccc1NCCCCCCN1C[C@H](O)[C@@H](O)[C@H](O)[C@H]1CO :: 8.6 nM

Now examine the next entry.
## Task Please look up its IC50: O=Cc1cc(NCCCCCCN2C[C@H](O)[C@@H](O)[C@H](O)[C@H]2CO)cc(-c2ncccn2)c1
## Result 7 nM
